- System: SN12C renal
- assay_name: NCI tumour cell line growth inhibition, 48 h

compound: CC(=O)NC1C(O[C@H]2C[C@H]3[C@@H]4CC=C5C[C@@H](O)CC[C@]5(C)[C@H]4CC[C@]3(C)[C@H]2[C@H](C)C(=O)CCC(C)C)OCC(O)C1O (some centres undefined)
GI50: 8.58 µM
--
compound: O=C(COc1ccc(/C=C2\Oc3ccccc3C2=O)cc1)Nc1nc2ccccc2s1
GI50: 10.5 µM
--
compound: Fc1ccc(NC(c2ccc(F)cc2)C2CCN(CCCCc3ccccc3)CC2)cc1 (centres undefined)
GI50: 1.77 µM
--
compound: COCCN(Cc1ccc(F)cc1)c1ccc(CO)c(Cl)c1
GI50: 24.9 µM
--
compound: Cc1cc(Br)c(NC(=O)c2c(-c3c(Cl)cccc3Cl)noc2C)c(Br)c1
GI50: > 100 µM
--
compound: OCC1CC[N-]CC1.OCC1CC[N-]CC1.[Cl][Pt+2]([Cl])([Cl])[Cl]
GI50: 30.8 µM
--
compound: CNCc1ccc(-c2cc(-c3nc(-c4ccc(S(=O)(=O)C(C)C)cc4)cnc3N)on2)cc1
GI50: 8.58 µM
--
compound: O=C(O)CN(CCN(CC(=O)O)CC(=O)O)CC(=O)O.[Mn+2]
GI50: > 100 µM
--
compound: CCSCC1CC(O)(c2ccccc2)C(c2ccccc2)C(c2ccc(F)cc2)O1 (centres undefined)
GI50: 1.89 µM

###

- Test system: SK-MEL-5 melanoma
- assay_name: NCI tumour cell line growth inhibition, 48 h
Where a SMILES comes first, the peptide text is derived from it. Bridges are numbered along the chain shown (N, C = ends). [ ]: non-standard residue; d: D form. aThr = C[C@H](O)[C@H](N)C(=O)O

molecule: COC1(OC)CCc2c(sc3ncnc(Nc4cccc(Br)c4)c23)C1
TGI: > 100 µM

molecule: COc1ccc2ccccc2c1C1=NC(C)(C)CO1
TGI: > 100 µM

molecule: COc1ccccc1C1c2cc3c(cc2OC2(OC)COC(=O)C12)OCO3 (stereo unspecified)
TGI: 59.3 µM

molecule: COc1ccc(/C=C2\C(=O)N(NC(C)=O)c3ccccc32)cc1
TGI: > 100 µM

molecule: CC(=O)[CH-]C(=O)c1ccccc1.[C-]#[O+].[C-]#[O+].[Ir]
TGI: > 100 µM

molecule: COC(=O)/C=C(\C(=O)OC)c1cc(C)c2cc(C(C)C)ccc(C)c1-2
TGI: 80 µM

molecule: CCCCCC(=O)O[C@]1(C(C)=O)CCC2C3CCC4=CC(=O)CC[C@]4(C)C3CC[C@@]21C (stereo partly specified)
TGI: 2.77 µM

molecule: CCCCCC/C=C\CCCCCCCCC(=O)c1cccc(OC)c1OC
TGI: 60.9 µM

molecule: Cn1c(=O)c2nc3sc4c(n3c2n(C)c1=O)C(=O)c1ccccc1C4=O
TGI: > 100 µM

molecule: O=C(COc1ccc(/C=C2\Oc3ccccc3C2=O)cc1)Nc1nc2ccccc2s1
TGI: > 100 µM

molecule: NC(N)=NCCCC(NCc1c2ccccc2nc2ccccc12)C(=O)O (stereo unspecified)
TGI: > 62.2 µM

molecule: COc1ccc2nc(NC(=O)C(=O)CC(=O)c3ccc([N+](=O)[O-])cc3)sc2c1
TGI: > 100 µM

molecule: CC(C)C[C@@H]1NC(=O)[C@@H]2CCCN2C(=O)[C@@H]2CCCN2C(=O)[C@H](CC(C)C)NC(=O)[C@H](CO)NC(=O)[C@H](CCCCN)NC(=O)[C@H]([C@H](C)O)NC(=O)[C@@H]2CSSC[C@@H](NC1=O)C(=O)N[C@@H](Cc1ccccc1)C(=O)N1CCC[C@H]1C(=O)N[C@@H](CC(=O)O)C(=O)NCC(=O)N[C@@H](CCCN=C(N)N)C(=O)N2 (cyclo(C[aThr]KSLPPL[dC]FPDGR); disulfide 1-9)
TGI: > 50 µM

molecule: COC(=O)C1CCC(=O)N1CN(C(C)=O)c1cccc(O)c1 (stereo unspecified)
TGI: > 100 µM

molecule: CCOC(=O)c1cn(CC)c(=O)n2c1nc1ccccc12
TGI: > 100 µM

molecule: O=c1[nH]c2[nH]c(=S)[nH]c(=S)c2[nH]1
TGI: > 100 µM

molecule: COCCN(Cc1ccc(F)cc1)c1ccc(CO)c(Cl)c1
TGI: 26.2 µM

molecule: O=C(c1ccc(Cl)cc1)N(C(=O)N1CCCCC1)c1ccccc1
TGI: > 100 µM

molecule: CNCc1ccc(-c2cc(-c3nc(-c4ccc(S(=O)(=O)C(C)C)cc4)cnc3N)on2)cc1
TGI: 12.3 µM

molecule: C=C(C#N)C(=O)OCC(CC)CC.C=C(C#N)C(=O)OCC(CC)CC.CS(C)=O.CS(C)=O.Nc1c(N=Nc2ccc(-c3ccc(N=Nc4cc(S(=O)(=O)[O-])c5ccccc5c4N)cc3)cc2)cc(S(=O)(=O)[O-])c2ccccc12.[Pt+2]
TGI: > 77.4 µM

molecule: COCCOC1=C(Cl)C(=O)c2ccccc2C1=O
TGI: 3.51 µM

###

- Test system: MDA-N
- assay_name: NCI tumour cell line growth inhibition, 48 h
value_type: log10(TGI) (log10 of the value in µM)

molecule: CCN1CCC(O)(c2ccc([N+](=O)[O-])cc2)C(C(=O)c2ccc([N+](=O)[O-])cc2)C1 (stereo not drawn)
log10(TGI): 1.59
--
molecule: Oc1ccc(C(=C(Br)c2ccccc2)c2ccc(O)cc2)cc1
log10(TGI): 0.61
--
molecule: COC(=O)/C=C(\C(=O)OC)c1cc(C)c2cc(C(C)C)ccc(C)c1-2
log10(TGI): 1.67
--
molecule: CN=c1sc2c(n1C)C(=O)c1ccccc1C2=O
log10(TGI): -0.33
--
molecule: COc1ccc(CCCCNCc2cccc(CNCCCCc3ccc(OC)cc3)c2)cc1
log10(TGI): 0.63

###

- Test system: SF-539 CNS
- assay_name: NCI tumour cell line growth inhibition, 48 h
Where a SMILES comes first, the peptide text is derived from it. Bridges are numbered along the chain shown (N, C = ends). [ ]: non-standard residue; d: D form. aThr = C[C@H](O)[C@H](N)C(=O)O
value_type: TGI

molecule: COC12C(COC(=O)NCCO)C3=C(C(=O)C(C)=C(N)C3=O)N1CC1NC12 (configuration not stated)
value_type: TGI
assay_result: 98.7 µM
--
molecule: Fc1ccc(NC(c2ccc(F)cc2)C2CCN(CCCCc3ccccc3)CC2)cc1 (configuration not stated)
value_type: TGI
assay_result: 3.1 µM
--
molecule: CC(C)C[C@@H]1NC(=O)[C@@H]2CCCN2C(=O)[C@@H]2CCCN2C(=O)[C@H](CC(C)C)NC(=O)[C@H](CO)NC(=O)[C@H](CCCCN)NC(=O)[C@H]([C@H](C)O)NC(=O)[C@@H]2CSSC[C@@H](NC1=O)C(=O)N[C@@H](Cc1ccccc1)C(=O)N1CCC[C@H]1C(=O)N[C@@H](CC(=O)O)C(=O)NCC(=O)N[C@@H](CCCN=C(N)N)C(=O)N2 (cyclo(C[aThr]KSLPPL[dC]FPDGR); disulfide 1-9)
value_type: TGI
assay_result: > 50 µM
--
molecule: COc1ccc(/C=C2\CCC/C(=C\c3ccc(OC)c(OC)c3)C2=O)cc1OC
value_type: TGI
assay_result: > 32.5 µM
--
molecule: COc1cc(/C=C/c2csnn2)cc(OC)c1OC
value_type: TGI
assay_result: > 100 µM
--
molecule: COC(=O)c1cc(S(=O)(=O)NC2=NCC(C)NN2)c(S)cc1Cl (configuration not stated)
value_type: TGI
assay_result: > 100 µM
--
molecule: Cc1[nH]n(-c2nc3c(c(=O)[nH]2)CCCC3)c(=O)c1CCO
value_type: TGI
assay_result: > 100 µM

###

- Tested on: 786-0 renal
- assay_name: NCI tumour cell line growth inhibition, 48 h; in the data active = GI50 below about 0.43 µM; inactive = the rest
Possible outcomes: T for active, F for inactive

compound: COc1ccc(C(O)c2cc3c(N)c(C(=O)Nc4cccc5ccccc45)sc3nc2C)cc1 (configuration not stated)
system_name: 786-0 renal
category: F
--
compound: CC(=O)Oc1ccc(C2=Cc3ccc(OC(C)=O)cc3OC2C)cc1 (configuration not stated)
system_name: 786-0 renal
category: F
--
compound: N#CC(C#N)=C/C=C(\Sc1ccc(Cl)cc1)c1ccc(F)cc1
system_name: 786-0 renal
category: T
--
compound: COc1ccccc1CNCCN1C(=O)c2ccc3c4c(ccc(c24)C1=O)C(=O)N(CCNCc1ccccc1OC)C3=O
system_name: 786-0 renal
category: T
--
compound: CN1CCN(c2c(F)cc(NC3=C(Cl)C(=O)c4ncccc4C3=O)cc2F)CC1
system_name: 786-0 renal
category: F
--
compound: Fc1ccc(NC(c2ccc(F)cc2)C2CCN(CCCCc3ccccc3)CC2)cc1 (configuration not stated)
system_name: 786-0 renal
category: F
--
compound: COc1ccc(-c2nc3ccc(Cc4ccc5nc(-c6ccc(OC)cc6)[nH]c5c4)cc3[nH]2)cc1
system_name: 786-0 renal
category: T
--
compound: Cc1cc(Br)c(NC(=O)c2c(-c3c(Cl)cccc3Cl)noc2C)c(Br)c1
system_name: 786-0 renal
category: F
--
compound: CNCc1ccc(-c2cc(-c3nc(-c4ccc(S(=O)(=O)C(C)C)cc4)cnc3N)on2)cc1
system_name: 786-0 renal
category: T
--
compound: COc1ccc(Nc2cnc3cc(N)cc(N)c3n2)cc1
system_name: 786-0 renal
category: F
--
compound: O=C(c1cccs1)c1c(C(F)(F)F)n([O-])c2cc(Cl)c(Cl)cc2[n+]1=O
system_name: 786-0 renal
category: F
--
compound: C(=Nc1nc(SCc2ccccc2)nc2[nH]ncc12)c1cccs1
system_name: 786-0 renal
category: F
--
compound: COc1ccc(-c2[nH]c3ccc(OC)cc3c2C=C(C#N)C#N)cc1
system_name: 786-0 renal
category: F
--
compound: Cc1ccc(NC(=O)c2cc(S(=O)(=O)Nc3nnc(-c4ccccc4)c(-c4ccccc4)n3)c(SCc3ccccc3)cc2Cl)cc1
system_name: 786-0 renal
category: F
--
compound: CCCCCCCCCCCCCCNC(=O)Nc1ccc(Cl)c(Cl)c1
system_name: 786-0 renal
category: F
--
compound: C#Cc1ccc(-n2c(/C=C/c3ccc(O)cc3)nc3ncccc3c2=O)cc1
system_name: 786-0 renal
category: F
--
compound: COCCN(CCOC)c1nc(-c2ccccc2)nc2ccccc12
system_name: 786-0 renal
category: F
